System: S6K1
Details: concentration: 1 μM, replicates: in singlicate; n = 1;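 further: KINOMEscan kinase panel screen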
This section presents compounds with their documented %Inh values.
Entry rule: numbers only, all in %.

{"compound": "COc1cc(Nc2ccnc3ccc(C(F)(F)F)cc23)cc(OC)c1OC", "unit-annotation": "%", "%Inh": 1}
{"compound": "CC(C)(C)c1ccc(C(=O)Nc2cn3cc(-c4ccccc4)ccc3n2)cc1", "unit-annotation": "%", "%Inh": 0}

Give %Inh (S6K1) of the following compound: COc1cc(Nc2nccc(N3CCC(NC(=O)C4COc5ccccc5O4)C3)n2)cc(OC)c1OC (stereo not drawn) 0

----------
Tested on: SIK2
Details: concentration: 1 μM, replicates: in singlicate; n = 1
property-name: %Inh (%)
Entry rule: numbers only, all in %.

{"entry-smiles": "Cc1nn2c(=O)cc(N3CCOCC3)nc2n1Cc1cccc(Cl)c1Cl", "unit-annotation": "%", "endpoint-result": 0}
{"entry-smiles": "COc1cc2ncn(-c3cc(OCc4ccncc4Br)c(C(N)=O)s3)c2cc1OC", "unit-annotation": "%", "endpoint-result": 6}
{"entry-smiles": "CCn1c(-c2ccoc2)nc2cnccc21", "unit-annotation": "%", "endpoint-result": 0}
{"entry-smiles": "COc1ccc(-c2cc3c(C)nc(N)nc3n([C@H]3CC[C@H](OCCO)CC3)c2=O)cn1", "unit-annotation": "%", "endpoint-result": 5}
{"entry-smiles": "O=C(Nc1n[nH]c2cc(-c3ccccc3F)ccc12)C1CC1", "unit-annotation": "%", "endpoint-result": 5}

Please give the measured %Inh for this molecule: CCCNC(=O)Nc1ccc(Oc2ncnc3ccn(C)c23)cc1 0

Please give the measured %Inh for this molecule: Nc1nc(N)c2nc(-c3ccccc3)[nH]c2n1 22

Please give the measured %Inh for this molecule: COc1ccc(-n2cnc3c(N)ncnc32)cc1 14

----------
Test system: SNARK
Construct: gene NUAK2
Conditions: concentration: 1 μM, replicates: in singlicate; n = 1
property-name: %Inh (%)
Entry rule: numbers only, all in %.

// solved cases for %Inh follow
{"entry-smiles": "CCC(=O)c1c(-c2ccccc2)c2cc(Cl)ccc2c(=O)n1Cc1cc(S(C)(=O)=O)n(CCC(C)(C)O)n1", "endpoint-result": 1}
{"entry-smiles": "Nc1nc(N)c2nc(-c3ccccc3)[nH]c2n1", "endpoint-result": 19}
{"entry-smiles": "CCS(=O)(=O)c1ccc(OC)c(Nc2ncc(-c3ccc(F)cc3)o2)c1.Cl", "endpoint-result": 0}
{"entry-smiles": "O=C(Nc1n[nH]c2nc(-c3ccccc3)c(Br)cc12)C1CC1", "endpoint-result": 4}
{"entry-smiles": "COc1cc(Nc2ccnc3ccc(C(F)(F)F)cc23)cc(OC)c1OC", "endpoint-result": 0}

# evaluate next
Please give the measured %Inh for this molecule: CCC(=O)c1c(-c2ccccc2)c2cc(Cl)ccc2c(=O)n1Cc1ccc(C(=O)O)cc1 0

----------
Tested on: EPHB6
Conditions: concentration: 1 μM, replicates: in singlicate; n = 1
This section presents compounds with their documented %Inh values.
Entry rule: numbers only, all in %.

{"entry-smiles": "COc1cc(OC)cc(-c2cc3cnc(N)nc3nc2NC(=O)NC(C)(C)C)c1", "%Inh (%)": 24}

Please give the measured %Inh for this compound: CN(C)c1cc(-c2ccc3c(N)n[nH]c3c2)nc(N)n1 3

Please give the measured %Inh for this compound: CCCC(=O)Nc1n[nH]c2ncc(-c3cccc4ccccc34)cc12 41

Please give the measured %Inh for this compound: COc1cc2ncn(-c3cc(OCCCc4ccccc4)c(C(N)=O)s3)c2cc1OC 39

Please give the measured %Inh for this compound: Cl.c1ccc(Cn2cnc3cc(Nc4ncnc5ccccc45)ccc32)cc1 80

Please give the measured %Inh for this compound: Cc1cccc(-c2cc(-c3c[nH]nc3-c3ccccn3)ccn2)c1 74

Please give the measured %Inh for this compound: COc1ccc(-c2cc3c(C)nc(N)nc3n([C@H]3CC[C@H](O)CC3)c2=O)cn1 4

----------
Test system: MRCKB
Construct: gene CDC42BPB
Conditions: concentration: 1 μM, replicates: in singlicate; n = 1
property-name: %Inh (%)
Entry rule: numbers only, all in %.

// solved cases for %Inh follow
{"compound": "Cc1ccc(-c2ccc3c(ccc4sc5c(c43)NC[C@@H](C)N=C5N(C)C)n2)cn1", "%Inh (%)": 3}
{"compound": "COc1cc2ncn(-c3cc(OCc4ccncc4Br)c(C(N)=O)s3)c2cc1OC [GW854278]", "%Inh (%)": 0}
{"compound": "CN1C(=O)C(Nc2ccccc2)=C(c2ccccc2)C1=O [SB-300079]", "%Inh (%)": 0}
{"compound": "O=C(NCCNc1ccnc(Nc2ccc(F)cc2)n1)Nc1ccc2c(c1)OCO2 [GSK1379882]", "%Inh (%)": 0}
{"compound": "Nc1nc(N)c2nc(-c3ccccc3)[nH]c2n1 [SKF-12778]", "%Inh (%)": 0}
{"compound": "COC(=O)c1c(-c2ccccc2)c2cc(C)ccc2c(=O)n1Cc1ccccc1", "%Inh (%)": 0}
{"compound": "Cc1cccc(-c2cc(-c3c[nH]nc3-c3ccccn3)ccn2)c1 [GW679395]", "%Inh (%)": 0}
{"compound": "Nc1n[nH]c2ncc(-c3ccccc3)cc12 [SB-517081]", "%Inh (%)": 0}
{"compound": "O=C1NC(=O)C(c2ccccc2)=C1Nc1cccc(O)c1 [SB-390534]", "%Inh (%)": 0}
{"compound": "CCn1c(-c2nonc2N)nc2ccccc21 [SB-693162/GW549034]", "%Inh (%)": 0}

Please give the measured %Inh for this compound: COc1ccc(Nc2nccc(N3CCC(NS(=O)(=O)c4ccc(NC(C)=O)cc4)C3)n2)cc1 (stereo not shown) [GSK1379729] 15

Please give the measured %Inh for this compound: COc1cccc(-n2cnc3c(N)ncnc32)c1 [SKF-97416] 0

Please give the measured %Inh for this compound: C[C@@H]1CC[C@H](C(=O)NC2CCCCC2)CN1c1cc(-c2ccc3c(N)n[nH]c3c2)nc(N)n1 [GSK2291363] 15

----------
This section presents compounds with their documented %Inh values.
System: YES
Construct: gene YES1
Settings: concentration: 1 μM, replicates: in singlicate; n = 1
Entry rule: numbers only, all in %.

{"entry-smiles": "CCC(=O)c1c(-c2ccccc2)c2cc(Cl)ccc2c(=O)n1Cc1ccc(C(=O)O)cc1", "endpoint-result": 0}
{"entry-smiles": "CCCNC(=O)Nc1ccc(Oc2ncnc3ccn(C)c23)cc1", "endpoint-result": 0}
{"entry-smiles": "COc1ccc(-n2cnc3c(N)ncnc32)cc1", "endpoint-result": 0}
{"entry-smiles": "Cl.NS(=O)(=O)c1cccc(Nc2cc(-c3ccc(F)cc3)n[nH]2)c1", "endpoint-result": 0}

Please give the measured %Inh for this compound: COc1ccc(-c2coc3ccc(-c4nnc(SCc5cccc(C#N)c5)o4)cc23)cc1 0

Please give the measured %Inh for this compound: CN1C(=O)C(Nc2ccccc2)=C(c2ccccc2)C1=O 0

Please give the measured %Inh for this compound: CN(C)c1cc(-c2ccc3c(N)n[nH]c3c2)nc(N)n1 1

----------
System: BRK
Construct: gene PTK6
Settings: concentration: 1 μM, replicates: in singlicate; n = 1
property-name: %Inh (%)
Entry rule: numbers only, all in %.

{"molecule": "Cc1cc(Nc2nc(-c3cccc(C)n3)nc3ccccc23)ccn1", "endpoint-result": 0}

Please give the measured %Inh for this molecule: Nc1nc(N)c2nc(-c3ccccc3)[nH]c2n1 16

Please give the measured %Inh for this molecule: Cl.NS(=O)(=O)c1cccc(Nc2cc(-c3ccc(F)cc3)n[nH]2)c1 0

Please give the measured %Inh for this molecule: CCC(=O)c1c(-c2ccccc2)c2cc(Cl)ccc2c(=O)n1Cc1cc(S(C)(=O)=O)n(CCC(C)(C)O)n1 7

Please give the measured %Inh for this molecule: Fc1cccc(CSc2nnc(-c3ccc4c(c3)CCO4)o2)c1 2

----------
Tested on: ZAP70
Conditions: concentration: 1 μM, replicates: in singlicate; n = 1
This section presents compounds with their documented %Inh values.
Entry rule: numbers only, all in %.

// solved cases for %Inh follow
{"entry-smiles": "O=C(NCc1cccs1)c1cc(C(=O)c2c(Cl)cccc2Cl)c[nH]1", "property-name": "%Inh", "unit-annotation": "%", "endpoint-result": 0}
{"entry-smiles": "Cc1cccc(-c2cc(-c3c[nH]nc3-c3ccccn3)ccn2)c1", "property-name": "%Inh", "unit-annotation": "%", "endpoint-result": 0}

Give %Inh (ZAP70) of the following compound: Cl.NS(=O)(=O)c1cccc(Nc2cc(-c3ccc(F)cc3)n[nH]2)c1 0

Give %Inh (ZAP70) of the following compound: COc1cccc(C2=C(N(C)c3ccccc3)C(=O)NC2=O)c1 0

Give %Inh (ZAP70) of the following compound: COc1cc2ncn(-c3cc(OCc4ccc(S(C)(=O)=O)cc4)c(C(N)=O)s3)c2cc1OC 17

Give %Inh (ZAP70) of the following compound: CN1C(=O)C(Nc2ccccc2)=C(c2ccccc2)C1=O 23
